system: UACC-257 melanoma; assay: NCI tumour cell line growth inhibition, 48 h
Readings of TGI for the listed compounds
Provide the reading as a plain figure in µM.

Record CC1C=CN(N(C)C)C2=C1C(=O)c1cnccc1C2=O (stereo not given) : what is its TGI with UACC-257 melanoma?
0.75

Record O=C(O)CCSC(CC1(c2ccc(Cl)cc2)NC(=O)CCS1)c1ccccc1 (stereo not given) : what is its TGI with UACC-257 melanoma?
49.1

====

tested on: M14 melanoma; assay: NCI tumour cell line growth inhibition, 48 h
Readings of TGI for the listed compounds

// known answers, use as guide
Query (compound): `Cc1c2cccc-2c(OCCO)cc2c3ccccc3n(C)c12` ; field requested: TGI
12.2 µM

Query (compound): `C=CCN(C(=O)CNC(=O)C(F)(F)F)c1cc(OCc2ccccc2)c2c(c1)c(C)cn2S(=O)(=O)c1ccccc1` ; field requested: TGI
> 100 µM

Query (compound): `CCOC(=O)/C=C(\C(=O)OCC)n1ccc(=O)n(Cc2cn(CCCCOC(C)=O)nn2)c1=O` ; field requested: TGI
54.8 µM

Query (compound): `CCOc1nnnc2nc[nH]c12` ; field requested: TGI
> 100 µM

Others:
Query (compound): `COC(=O)[C@@]1(C)/C(=N/NS(=O)(=O)c2ccc(C)cc2)CCC[C@@H]1C` ; field requested: TGI
> 100 µM

Query (compound): CC(Oc1ccc(OCC2CCCCC2)cc1)C(=O)OCC(=O)c1ccc(-c2ccccc2)cc1 (stereo unspecified) ; field requested: TGI
> 100 µM
